- targetOrTestSystem: monoclonal antibody products
- experimentalContext: binding to monoclonal antibody products; read-out: dissociation constant (KD)
measuredQuantity: Kd

Report Kd for Nc1cccc(Nc2nc(NCCO)nc(NCC(O)CNc3nc(NCCO)nc(Nc4cccc(N)c4)n3)n2)c1 tested on monoclonal antibody products.
< 1000 nM

Data credit: patent US20190167576A1
